// reported EC50 vpac2 (Molar), cell-based cAMP assay per item
- target of assay: T1, VPAC2 receptor (UniProt P41587 24-438, limits assumed)
- T1 sequence (looked up): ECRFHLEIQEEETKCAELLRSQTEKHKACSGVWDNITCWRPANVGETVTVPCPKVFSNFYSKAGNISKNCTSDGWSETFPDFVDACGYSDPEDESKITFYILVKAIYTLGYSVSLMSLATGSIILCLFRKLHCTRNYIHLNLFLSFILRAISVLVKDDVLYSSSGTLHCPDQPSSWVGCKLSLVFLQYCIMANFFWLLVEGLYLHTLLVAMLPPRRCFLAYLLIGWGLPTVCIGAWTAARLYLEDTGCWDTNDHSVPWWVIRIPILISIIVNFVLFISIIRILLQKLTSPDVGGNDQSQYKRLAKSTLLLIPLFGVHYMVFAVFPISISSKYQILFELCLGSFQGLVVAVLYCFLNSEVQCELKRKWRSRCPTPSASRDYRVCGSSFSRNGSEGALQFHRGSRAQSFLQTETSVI
- assay comment: cell-based or functional assay
Where no end group is shown, it is not given here. [ ]: non-standard residue; d: D form. ACPC = 2-aminocyclopentanecarboxylic acid; β3hT = C[C@@H](O)[C@H](N)CC(=O)O; β3hN = NC(=O)C[C@H](N)CC(=O)O; β3hL = CC(C)C[C@H](N)CC(=O)O; β3hK = NCCCC[C@H](N)CC(=O)O; β3hV = CC(C)[C@H](N)CC(=O)O; β3hD = NC(CC(=O)O)CC(=O)O; β3hS = N[C@@H](CO)CC(=O)O
metric: EC50 vpac2 (Molar), cell-based cAMP assay (µM)

binder="H[ACPC]DAVFTDNY[β3hT]RLR[β3hK]QLA[β3hV]KKY[β3hL]NAI[β3hL]N (not fully specified (C-terminus); printed as HxDAVFTDNYtRLRkQLAvKKYlNAIlN) [LBT-V102]" value_modifier== measured_value=4.9
binder="H[dF]DA[β3hV]FTD[β3hN]Y[β3hT]RLR[β3hK]QLA[β3hV]KKY[β3hL]NAI[β3hL]N (not fully specified (C-terminus); printed as HfDAvFTDnYtRLRkQLAvKKYlNAIlN) [LBT-V129]" value_modifier== measured_value=0.989
binder="H[ACPC]DA[ACPC]FTDNY[β3hT]RLR[β3hK]QLA[β3hV]KKY[β3hL]NAI[β3hL]N (not fully specified (C-terminus); printed as HxDAxFTDNYtRLRkQLAvKKYlNAIlN) [LBT-V103]" value_modifier== measured_value=0.0796
binder="HS[β3hD]AVF[β3hT]DNY[β3hT]RLR[β3hK]QLA[β3hV]KKY[β3hL]NAI[β3hL]N (not fully specified (C-terminus); printed as HSdAVFtDNYtRLRkQLAvKKYlNAIlN) [LBT-V107]" value_modifier=> measured_value=1
binder="H[dF]DA[ACPC]FTDNY[β3hT]RLR[β3hK]QLA[β3hV]KKY[β3hL]NAI[β3hL]N (not fully specified (C-terminus); printed as HfDAxFTDNYtRLRkQLAvKKYlNAIlN) [LBT-V127]" value_modifier=> measured_value=1
binder="H[dF]DAVFTDNY[β3hT]RLR[β3hK]QLA[β3hV]KKY[β3hL]NAI[β3hL]N (not fully specified (C-terminus); printed as HfDAVFTDNYtRLRkQLAvKKYlNAIlN) [LBT-V126]" value_modifier== measured_value=0.344
binder="H[ACPC]DA[β3hV]FTDNY[β3hT]RLR[β3hK]QLA[β3hV]KKY[β3hL]NAI[β3hL]N (not fully specified (C-terminus); printed as HxDAvFTDNYtRLRkQLAvKKYlNAIlN) [LBT-V104]" value_modifier== measured_value=0.262
binder="H[β3hS]DA[β3hV]FTDNY[β3hT]RLR[β3hK]QLA[β3hV]KKY[β3hL]NAI[β3hL]N (not fully specified (C-terminus); printed as HsDAvFTDNYtRLRkQLAvKKYlNAIlN) [LBT-V105]" value_modifier== measured_value=0.716
binder="HSDAVFTDNY[β3hT]RLR[β3hK]QLA[β3hV]KKY[β3hL]NAI[β3hL]N (not fully specified (C-terminus); printed as HSDAVFTDNYtRLRkQLAvKKYlNAIlN) [LBT-V101]" value_modifier== measured_value=8260
binder="H[β3hS]DA[β3hV]FTD[β3hN]Y[β3hT]RLR[β3hK]QLA[β3hV]KKY[β3hL]NAI[β3hL]N (not fully specified (C-terminus); printed as HsDAvFTDnYtRLRkQLAvKKYlNAIlN) [LBT-V106]" value_modifier== measured_value=0.503
binder="H[dF][β3hD]AVF[β3hT]DNY[β3hT]RLR[β3hK]QLA[β3hV]KKY[β3hL]NAI[β3hL]N (not fully specified (C-terminus); printed as HfdAVFtDNYtRLRkQLAvKKYlNAIlN) [LBT-V130]" value_modifier== measured_value=0.609
binder="H[dF]DA[β3hV]FTDNY[β3hT]RLR[β3hK]QLA[β3hV]KKY[β3hL]NAI[β3hL]N (not fully specified (C-terminus); printed as HfDAvFTDNYtRLRkQLAvKKYlNAIlN) [LBT-V128]" value_modifier== measured_value=0.0503

The reported numbers originate from patent US20180193423A1.
